// provenance: patent US20150315188A1

# tested target: Human adrenergic α2A receptor (Homo sapiens, UniProt P08913)
# Sequence (P08913 whole entry): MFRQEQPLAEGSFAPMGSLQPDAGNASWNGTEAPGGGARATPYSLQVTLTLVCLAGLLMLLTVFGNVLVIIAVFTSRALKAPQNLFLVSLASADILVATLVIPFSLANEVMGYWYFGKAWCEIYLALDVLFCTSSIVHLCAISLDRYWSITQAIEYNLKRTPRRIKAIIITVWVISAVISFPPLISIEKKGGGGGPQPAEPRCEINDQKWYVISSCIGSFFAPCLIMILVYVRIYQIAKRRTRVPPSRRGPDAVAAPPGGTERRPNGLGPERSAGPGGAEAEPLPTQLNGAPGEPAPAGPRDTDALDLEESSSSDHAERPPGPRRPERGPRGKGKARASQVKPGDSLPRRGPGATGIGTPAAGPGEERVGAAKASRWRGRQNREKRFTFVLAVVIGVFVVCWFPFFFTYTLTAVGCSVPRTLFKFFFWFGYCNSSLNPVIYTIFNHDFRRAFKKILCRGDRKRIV
# test method notes: β-Arrestin GPCR functional assay, adrenergic α2A (Protocol B)
# conditions used: β-arrestin, antagonist vs nor-epinephrine EC80
pIC50: −log10 of the molar value.
Param threshold (6) applies to pIC50; output label 1 when value >= threshold, label 0 when value < threshold.

Examples from the recorded data:
molecule	tested target	group
OC(Cn1c2c(c3cc(Cl)cc(F)c31)C1CCCN1CC2)c1ccncc1 (single isomer, unassigned) [135b]	Human adrenergic α2A receptor (Homo sapiens, UniProt P08913)	label 1
Cc1cc(C)c2c(c1)c1c(n2CC(C)(O)c2ccncc2)CCN2CCCC12 (single isomer, unassigned) [19b]	Human adrenergic α2A receptor (Homo sapiens, UniProt P08913)	label 0
CC(O)(Cn1c2c(c3cc(F)cc(Cl)c31)C1CCCN1CC2)c1cccnc1 (single isomer, unassigned) [89d]	Human adrenergic α2A receptor (Homo sapiens, UniProt P08913)	label 0
CCOC(Cn1c2c(c3cc(C)ccc31)CN(C)CC2)c1ccncc1 (single isomer, unassigned) [43b]	Human adrenergic α2A receptor (Homo sapiens, UniProt P08913)	label 0
Cc1ccc2c(c1)c1c(n2CC(C)(O)c2cccnc2)CC2CCCN2C1 (single isomer, unassigned) [38c]	Human adrenergic α2A receptor (Homo sapiens, UniProt P08913)	label 0

# ---- query molecule ----
(Q) Please indicate if the recorded pIC50 for Cc1cc(F)c2c(c1)c1c(n2CC(C)(O)c2cccnc2)CCN2CCCC12 (single isomer, unassigned) [79b] meets or exceeds 6.
(A) label 0

###

# tested target: Human adrenergic α2B receptor (Homo sapiens)
# test method notes: Radioligand binding, adrenergic α2B (Protocol Group B)
# Parameters: purchased Milipore (Millipore)
# conditions used: Protocol Group B; estimated Ki; read-out: Ki α2B
molecules and their reported Ki
Supply the numeric figure in µM, leaving out any unit text.

(Q) // Input: Cc1ccc2c(c1F)c1c(n2CC(C)(O)c2cccnc2)CCN2CCCC12 (single isomer, unassigned) [87a] . Output its Ki only.
(A) 0.0206

(Q) Output Ki of Cc1ccc2c(c1F)c1c(n2CC(C)(O)c2cccnc2)CCN2CCCC12 (single isomer, unassigned) [87b]
(A) 0.0238

(Q) Supply reported Ki belonging to this molecule: CCCOC(Cn1c2c(c3cc(C)ccc31)CN(C)CC2)c1ccncc1 (single isomer, unassigned) [42a]
(A) 0.0023

(Q) Supply Ki value. Item: CC(O)(Cn1c2c(c3cc(F)cc(Cl)c31)C1CCCN1CC2)c1cccnc1 (single isomer, unassigned) [89d]
(A) 0.00085

###

# tested target: Human adrenergic α2A receptor (Homo sapiens, UniProt P08913)
# test method notes: Radioligand binding, adrenergic α2A (Protocol Group B)
# Set-up: purchased Milipore (Millipore)
# conditions used: 0.3 μM compound; Protocol Group B; read-out: Percentage inhibition of ligand binding, Adrenergic α2A (0.3 μM)
test readout: inhibition at 0.3 µM
Report as: number unit

molecule	inhibition at 0.3 µM
Cc1cc(F)cc2c3c(n(CC(C)(O)c4cccnc4)c12)CCN1CCCC31 (centres unmarked) [75b]	5%

(Q) Write down measured inhibition at 0.3 µM (Human adrenergic α2A receptor (Homo sapiens, UniProt P08913)) for this molecule. Cc1ccc2c(c1)c1c(n2CC(C)(O)c2cccnc2)CC2CCC1N2C (single isomer, unassigned) [101a]
(A) 21%

###

Documented Percentage inhibition of ligand binding, Adrenergic α2B (30 nM) across a set of molecules
# tested target: Human adrenergic α2B receptor (Homo sapiens, UniProt P18089)
# Sequence (P18089 1-450): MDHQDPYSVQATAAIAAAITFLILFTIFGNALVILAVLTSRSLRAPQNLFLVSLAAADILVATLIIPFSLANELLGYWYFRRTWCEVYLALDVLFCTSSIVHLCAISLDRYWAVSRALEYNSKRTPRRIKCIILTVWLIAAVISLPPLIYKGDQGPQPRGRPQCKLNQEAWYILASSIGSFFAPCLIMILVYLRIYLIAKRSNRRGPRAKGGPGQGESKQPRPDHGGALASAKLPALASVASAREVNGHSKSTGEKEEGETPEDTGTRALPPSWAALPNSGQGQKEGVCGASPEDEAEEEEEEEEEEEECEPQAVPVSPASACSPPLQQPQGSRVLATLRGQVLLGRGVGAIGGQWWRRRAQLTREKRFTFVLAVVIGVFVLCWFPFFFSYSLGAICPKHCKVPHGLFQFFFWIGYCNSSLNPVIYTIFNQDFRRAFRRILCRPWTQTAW
# test method notes: Radioligand binding, adrenergic α2B (Protocol Group B)
# Design: purchased Milipore (Millipore)
# conditions used: 30 nM compound; Protocol Group B; 0.03 µM
# value in %; strip the unit string

molecule	tested target	assay value
Cc1cc(F)c2c(c1)c1c(n2CC(C)(O)c2cccnc2)CCN2CCCC12 (single isomer, unassigned) [79c]	Human adrenergic α2B receptor (Homo sapiens, UniProt P18089)	7
Cc1ccc2c(c1)c1c(n2CC(C)(O)c2cnc3ccccc3c2)CCN(C)C1 (stereo not shown) [compound 32]	Human adrenergic α2B receptor (Homo sapiens, UniProt P18089)	34
Cc1cc(F)cc2c3c(n(CC(C)(O)c4cccnc4)c12)CCN1CCCC31 (single isomer, unassigned) [75c]	Human adrenergic α2B receptor (Homo sapiens, UniProt P18089)	96
Cc1ccc2c(c1)c1c(n2CC(O)c2ccncc2)CCN2CCCC12 (single isomer, unassigned) [Compound No. 178d]	Human adrenergic α2B receptor (Homo sapiens, UniProt P18089)	104
Cc1cc(F)c2c(c1)c1c(n2CC(C)(O)c2ccncc2)CCN2CCCC12 (single isomer, unassigned) [81c]	Human adrenergic α2B receptor (Homo sapiens, UniProt P18089)	0

(Q) Identify Percentage inhibition of ligand binding, Adrenergic α2B (30 nM) associated with the molecule OC(Cn1c2c(c3cc(F)cc(F)c31)C1CCCN1CC2)c1ccncc1 (single isomer, unassigned) [144d]
(A) 1

(Q) Note down Percentage inhibition of ligand binding, Adrenergic α2B (30 nM) recorded for Cc1ccc2c(c1)c1c(n2CC(C)(O)c2cncc(F)c2)CCN(C)C1 (single isomer, unassigned) [46a]
(A) 60

###

# tested target: Human adrenergic α1B receptor (Homo sapiens)
# test method notes: Radioligand binding, adrenergic α1B (Protocol Group B)
# Set-up: purchased Milipore (Millipore)
# conditions used: 0.3 μM compound; Protocol Group B; read-out: Percentage inhibition of ligand binding, Adrenergic α1B (0.3 μM)
inhibition at 0.3 µM overview
Provide only the numeric value, understood in %.

The cases that follow already have their inhibition at 0.3 µM on record.
compound	inhibition at 0.3 µM (%)
Cc1ccc2c(c1)c1c(n2CC(C)(O)c2ccc(C(=O)N(C)CC3CC3)nc2)CCN(C)C1 (centres unmarked) [compound 33]	-1
Cc1ccc2c(c1)c1c(n2CC(C)(O)c2ccc(OCC3CC3)nc2)CCN(C)C1 (centres unmarked) [compound 56]	38
OC(Cn1c2c(c3cc(Cl)cc(F)c31)C1CCCN1CC2)c1ccncc1 (single isomer, unassigned) [135a]	92
Cc1ccc2c(c1)c1c(n2CC(O)c2cccnc2)C(O)CN(C)C1 (centres unmarked) [compound 24]	15

// moving on: another record for inhibition at 0.3 µM
(Q) Write down the reported inhibition at 0.3 µM (system: Human adrenergic α1B receptor (Homo sapiens)) of Cc1cc(F)c2c(c1)c1c(n2CC(O)c2ccncc2)CCN2CCCC12 (single isomer, unassigned) [137c]
(A) 14

###

# tested target: Human adrenergic α1B receptor (Homo sapiens)
# Sequence (P35368 1-520): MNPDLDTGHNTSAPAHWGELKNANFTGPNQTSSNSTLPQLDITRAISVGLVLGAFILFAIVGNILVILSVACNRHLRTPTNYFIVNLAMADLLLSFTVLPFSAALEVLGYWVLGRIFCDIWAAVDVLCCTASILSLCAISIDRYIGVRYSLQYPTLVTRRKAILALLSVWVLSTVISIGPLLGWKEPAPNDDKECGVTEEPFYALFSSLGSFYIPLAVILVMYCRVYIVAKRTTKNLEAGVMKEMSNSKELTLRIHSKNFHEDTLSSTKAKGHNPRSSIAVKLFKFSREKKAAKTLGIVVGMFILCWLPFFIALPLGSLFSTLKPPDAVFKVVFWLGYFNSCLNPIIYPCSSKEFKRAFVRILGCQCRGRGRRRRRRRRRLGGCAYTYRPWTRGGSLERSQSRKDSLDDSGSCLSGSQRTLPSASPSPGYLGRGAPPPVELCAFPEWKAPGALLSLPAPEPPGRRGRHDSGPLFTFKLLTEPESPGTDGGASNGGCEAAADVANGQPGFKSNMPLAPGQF
# test method notes: β-Arrestin GPCR functional assay, adrenergic α1B (Protocol B)
# Assay type: cell-based
# conditions used: 0.1 μM compound; nor-epinephrine at EC80 (50 nM)
Readings of Percentage inhibition, Adrenergic α1B for the listed compounds
A complete answer gives the number and then names the unit.

Example results:
compound	Percentage inhibition, Adrenergic α1B
Cc1cc(C)c2c(c1)c1c(n2CC(C)(O)c2ccncc2)CCN2CCCC12 (single isomer, unassigned) [19b]	25%
Cc1ccc2c(c1)c1c(n2CC(O)c2ccncc2F)CCN2CCCC12 (single isomer, unassigned) [14a]	49%
Cc1ccc2c(c1)c1c(n2CC(C)(O)c2ccncc2)CCN2CCCC12 (single isomer, unassigned) [13b]	32%

Attention now turns to another entry.
(Q) Let me know recorded Percentage inhibition, Adrenergic α1B for Cc1ccc2c(c1)c1c(n2CC(O)c2ccncc2F)CCN2CCCC12 (single isomer, unassigned) [14b] , thanks.
(A) 76%
